target: CDK9/CyclinT1 (Homo sapiens, UniProt P50750); assay: CDK9/CyclinT1 Mobility Shift Assay (Caliper, Table B); type: biochemical; set-up: Wild-type, full length CDK9 in complex with wildtype, CyclinT1 (1-259): Biortus Cat #BP480/792/691; purchased Biortus BP480/792/691; details: read-out: CDK9/Cyclin T1 Caliper Ki: Average Ki
Sequence (P50750 whole entry): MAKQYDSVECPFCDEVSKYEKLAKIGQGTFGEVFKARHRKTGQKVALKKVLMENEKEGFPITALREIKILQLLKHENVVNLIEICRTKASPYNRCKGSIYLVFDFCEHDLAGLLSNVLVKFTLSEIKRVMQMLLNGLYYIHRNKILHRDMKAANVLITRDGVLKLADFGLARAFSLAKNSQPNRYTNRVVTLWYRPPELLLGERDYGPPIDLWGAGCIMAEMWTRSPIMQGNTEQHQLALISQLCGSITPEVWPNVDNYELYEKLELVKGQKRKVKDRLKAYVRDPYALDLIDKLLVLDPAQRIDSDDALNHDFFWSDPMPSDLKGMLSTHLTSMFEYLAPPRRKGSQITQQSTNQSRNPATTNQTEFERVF
Sequence (O60563 1-259 partner limits assumed): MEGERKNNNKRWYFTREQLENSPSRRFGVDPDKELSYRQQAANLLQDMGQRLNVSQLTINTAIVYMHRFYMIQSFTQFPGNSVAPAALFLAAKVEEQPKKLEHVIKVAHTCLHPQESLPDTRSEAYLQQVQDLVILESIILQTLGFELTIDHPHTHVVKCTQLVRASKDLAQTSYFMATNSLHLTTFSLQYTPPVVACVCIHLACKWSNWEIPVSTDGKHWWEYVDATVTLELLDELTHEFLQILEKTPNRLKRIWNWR
pKi: −log10 of the molar value.
Endpoint label: pKi

>>> df
                                   compound  endpoint_label  reported_measurement
0  CN1CCNC(=O)O[C@@H]2CC[C@@H](C2)c2cc(n[nH]2)Nc2ccc(cc2F)S(=O)(=O)NCC1 [Compound 100]             pKi                ≤ 7.00
1  O=C1NCCCNS(=O)(=O)c2ccc(c(F)c2)Nc2cc([nH]n2)[C@H]2CC[C@H](C2)O1 [Compound 98]             pKi                ≤ 7.00
2  O=C1NCC=CCNS(=O)(=O)c2ccc(c(F)c2)Nc2cc([nH]n2)[C@H]2CC[C@H](C2)O1 [Compound 102]             pKi                ≤ 7.00
3  O=C1NCCCCn2cc(cn2)S(=O)(=O)N2CCC(CC2)Nc2cc([nH]n2)[C@H]2CC[C@H](C2)O1 [Compound 94]             pKi          7.00 to 7.60

* * *

target: CDK2/CyclinA2 (Homo sapiens); construct: Wild-type, full length CDK2 in complex with wildtype, full length CyclinA2: Carna Cat #04-103; purchased Carna 04-103; assay: CDK2/CyclinA2 ChEF Assay (AQT, Table C); type: biochemical; conditions: AQT, 10xKm; selectivity over CDK9
Endpoint label: CDK2/CCNA2 AQT10xKm Ki: CDK2/A2 Selectivity over CDK9

                                   compound  reported_measurement
0  NS(=O)(=O)c1ccc2cc1OCCCCCNC(=O)O[C@@H]1CC[C@@H](C1)c1cnc(nc1)N2 (stereo in doubt) [Compound 105]              A (A>10)
1  NS(=O)(=O)c1ccc2cc1OCCCCCNC(=O)O[C@H]1CC[C@H](C1)c1cnc(nc1)N2 (stereo in doubt) [Compound 104]              A (A>10)
2  O=C1NCCCCCCn2cc(cn2)S(=O)(=O)N2CCC(CC2)Nc2cc([nH]n2)[C@H]2CC[C@H](C2)O1 [Compound 97]              A (A>10)
3  NS(=O)(=O)c1ccc2cc1OCCCCCNC(=O)O[C@H]1CC[C@H](C1)c1cnc(nc1)N2 (stereo in doubt) [Compound 103]              A (A>10)
4  O=C1NCCCCCCNS(=O)(=O)c2ccc(c(F)c2)Nc2cc([nH]n2)[C@H]2CC[C@H](C2)O1 [Compound 91]              A (A>10)

* * *

target: CDK2/CyclinA2 (Homo sapiens, UniProt P24941); construct: Wild-type, full length CDK2 in complex with wildtype, full length CyclinA2: Carna Cat #04-103; purchased Carna 04-103; assay: CDK2/Cyclin A2 Mobility Shift Assay (Caliper, Table B); format: biochemical; conditions: Caliper, selectivity over CDK9
Endpoint label: CDK2/CCNA2 Caliper 10xKm Ki: CDK2/A2 Selectivity over CDK9

>>> df
                                smiles_code  reported_measurement
0  O=C1NCC=CCNS(=O)(=O)c2ccc(c(F)c2)Nc2cc([nH]n2)[C@H]2CC[C@H](C2)O1              A (A>10)
1  O=C1NCCCCCCCNS(=O)(=O)c2ccc(c(F)c2)Nc2cc([nH]n2)[C@H]2CC[C@H](C2)O1              A (A>10)

* * *

target: CDK9/CyclinT1 (Homo sapiens); test: CDK9/CyclinT1 Mobility Shift Assay (Caliper, Table B); format: biochemical; design: Wild-type, full length CDK9 in complex with wildtype, CyclinT1 (1-259): Biortus Cat #BP480/792/691; purchased Biortus BP480/792/691; details: read-out: CDK9/Cyclin T1 Caliper Ki: Average Ki
Endpoint label: Ki

In [3]: df
Out[3]:
                                   compound  endpoint_label  reported_measurement
0  O=C1NCCCn2cc(cn2)S(=O)(=O)N2CCC(CC2)Nc2cc([nH]n2)[C@H]2CC[C@H](C2)O1              Ki              ≥ 100 nM
1  NS(=O)(=O)c1ccc2cc1OCCCCCNC(=O)O[C@H]1CC[C@H](C1)c1cnc(nc1)N2 (stereo in doubt) [Compound 104]              Ki              ≥ 100 nM
2  O=C1NCCCCCCOc2cccc(n2)Nc2ncc(cn2)[C@@H]2CC[C@@H](C2)O1              Ki              ≥ 100 nM
3  O=C1NCCCCCCCNS(=O)(=O)c2ccc(c(F)c2)Nc2cc([nH]n2)[C@H]2CC[C@H](C2)O1              Ki          25 to 100 nM
4  O=C1NCCCCCCNS(=O)(=O)c2ccc(c(F)c2)Nc2cc([nH]n2)[C@H]2CC[C@H](C2)O1              Ki          25 to 100 nM
5  O=C1NCCCCCNS(=O)(=O)c2ccc(c(F)c2)Nc2cc([nH]n2)[C@H]2CC[C@H](C2)O1              Ki          25 to 100 nM
6  O=C1NCCCCNS(=O)(=O)c2ccc(c(F)c2)Nc2cc([nH]n2)[C@H]2CC[C@H](C2)O1              Ki              ≥ 100 nM

* * *

target: CDK9/CyclinT1 (Homo sapiens, UniProt P50750); assay: CDK9/CyclinT1 ChEF Assay (Table A); format: biochemical; set-up: Wild-type, full length CDK9 in complex with wildtype, full length CyclinT1: Invitrogen Cat #PV4131; purchased Invitrogen PV4131; conditions: 10xKm, read-out: CDK9/CCNT1 ChEF 10xKm Ki: Average Ki
Sequence (P50750 whole entry): as the sequence (P50750 whole entry) above
Sequence (O60563 whole entry partner): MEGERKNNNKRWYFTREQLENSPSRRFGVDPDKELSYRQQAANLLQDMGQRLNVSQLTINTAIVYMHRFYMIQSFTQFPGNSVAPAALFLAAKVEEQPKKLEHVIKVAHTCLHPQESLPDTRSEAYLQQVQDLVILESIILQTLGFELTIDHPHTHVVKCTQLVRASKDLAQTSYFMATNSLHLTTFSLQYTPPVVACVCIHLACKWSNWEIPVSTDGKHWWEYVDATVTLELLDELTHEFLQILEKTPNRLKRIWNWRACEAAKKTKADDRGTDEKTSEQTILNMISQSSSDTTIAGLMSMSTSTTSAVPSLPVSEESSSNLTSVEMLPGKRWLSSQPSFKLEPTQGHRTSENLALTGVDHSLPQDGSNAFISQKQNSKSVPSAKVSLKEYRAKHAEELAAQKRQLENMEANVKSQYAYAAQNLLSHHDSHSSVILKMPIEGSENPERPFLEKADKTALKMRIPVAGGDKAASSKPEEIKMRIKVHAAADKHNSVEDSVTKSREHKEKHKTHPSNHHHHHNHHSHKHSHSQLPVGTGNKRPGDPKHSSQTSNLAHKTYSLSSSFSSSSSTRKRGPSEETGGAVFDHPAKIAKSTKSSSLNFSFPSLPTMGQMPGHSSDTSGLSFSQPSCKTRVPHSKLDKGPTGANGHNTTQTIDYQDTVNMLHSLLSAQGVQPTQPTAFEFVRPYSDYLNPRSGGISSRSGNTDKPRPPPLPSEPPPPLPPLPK
pKi: −log10 of the molar value.
Form field: pKi (one value per entry).
Endpoint label: pKi

>>> print(df.to_string())
                                    compound  reported_measurement
 0  O=C1NCCOCCNS(=O)(=O)c2ccc(c(F)c2)Nc2cc([nH]n2)[C@H]2CC[C@H](C2)O1 [Compound 89]                ≤ 7.00
 1  O=C1NCCCCCCCNS(=O)(=O)c2ccc(c(F)c2)Nc2cc([nH]n2)[C@H]2CC[C@H](C2)O1 [Compound 92]                ≤ 7.00
 2  O=C1NCCCCn2cc(cn2)S(=O)(=O)N2CCC(CC2)Nc2cc([nH]n2)[C@H]2CC[C@H](C2)O1 [Compound 94]          7.60 to 9.00
 3  O=C1NCC=CCNS(=O)(=O)c2ccc(c(F)c2)Nc2cc([nH]n2)[C@H]2CC[C@H](C2)O1 [Compound 102]                ≤ 7.00
 4  O=C1NCCCn2cc(cn2)S(=O)(=O)N2CCC(CC2)Nc2cc([nH]n2)[C@H]2CC[C@H](C2)O1 [Compound 95]                ≤ 7.00
 5  O=C1NCCCCCNS(=O)(=O)c2ccc(c(F)c2)Nc2cc([nH]n2)[C@H]2CC[C@H](C2)O1 [Compound 90]                ≤ 7.00
 6  CC1(C)CCCNS(=O)(=O)c2ccc(c(F)c2)Nc2cc([nH]n2)[C@H]2CC[C@H](C2)OC(=O)N1 [Compound 101]          7.00 to 7.60
 7  O=C1NCCCCCCNS(=O)(=O)c2ccc(c(F)c2)Nc2cc([nH]n2)[C@H]2CC[C@H](C2)O1 [Compound 91]                ≤ 7.00
 8  O=C1NCCCNS(=O)(=O)c2ccc(c(F)c2)Nc2cc([nH]n2)[C@H]2CC[C@H](C2)O1 [Compound 98]          7.00 to 7.60
 9  O=C1NCCCCCCn2cc(cn2)S(=O)(=O)N2CCC(CC2)Nc2cc([nH]n2)[C@H]2CC[C@H](C2)O1 [Compound 97]                ≤ 7.00
10  O=C1NCCCCCn2cc(cn2)S(=O)(=O)N2CCC(CC2)Nc2cc([nH]n2)[C@H]2CC[C@H](C2)O1 [Compound 96]          7.00 to 7.60
11  CN1CCNC(=O)O[C@@H]2CC[C@@H](C2)c2cc(n[nH]2)Nc2ccc(cc2F)S(=O)(=O)NCC1 [Compound 100]                ≤ 7.00
12  O=C1NCCCCNS(=O)(=O)c2ccc(c(F)c2)Nc2cc([nH]n2)[C@H]2CC[C@H](C2)O1 [Compound 99]                ≤ 7.00
